Value source: the supplement of paper PMC10567573

B1: DCTD (parent)
chain: VKGCSMYVALFPCNECAKLIIQAG

Variants of: B1
assayDetails: protein stability index of a GFP-peptide fusion (GPS, HEK-293T) (PSI 1-6); higher = more stable;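 also: lentivirally expressed fusions sorted by FACS into six bins by GFP to DsRed ratio, PSI derived from sequencing read proportions per bin multiplied by bin number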
recordedConditions: c terminus: a fixed tail appended
readoutKind: protein stability index

Can you share its protein stability index? I mean this variant: VDGCSMYVALFPCNECAKLIIQAG [K2D]
2.7

protein stability index for VKGCSMYVALFPCNECASLIIQAG [K18S] ?
4.23

What does the data say about its protein stability index? Entry: VKGCSMYVALFPCNECAKLIIQAV [G24V]
2.98
